experiment: Half life period after oral administration in the dog; assay type: ADME, organism-based, Canis lupus familiaris; conditions: in vivo
readout: half-life (h)

Answered cases to consult:
entrySmiles	half-life [h]
CC[C@H]1OC(=O)[C@H](C)[C@@H](O[C@H]2C[C@@](C)(OC)C[C@H](C)O2)[C@H](C)[C@@H](O[C@@H]2O[C@H](C)C[C@H](NC)[C@H]2O)[C@@]2(C)CC(C)=C(O2)[C@H](C)[C@@H](O)[C@H]1C	2
CC[C@H]1OC(=O)[C@H](C)[C@@H](O[C@H]2C[C@@](C)(OC)[C@@H](O)[C@H](C)O2)[C@H](C)[C@@H](O[C@@H]2O[C@H](C)C[C@H](N(C)CC)[C@H]2O)[C@@]2(C)CC(C)=C(O2)[C@H](C)[C@@H](O)[C@]1(C)O	2.4

(A) CC[C@H]1OC(=O)[C@H](C)[C@@H](O[C@H]2C[C@@](C)(OC)C[C@H](C)O2)[C@H](C)[C@@H](O[C@@H]2O[C@H](C)C[C@H](N(C)CC)[C@H]2O)[C@@]2(C)CC(C)=C(O2)[C@H](C)[C@@H](O)[C@]1(C)O
(B) CC[C@H]1OC(=O)[C@H](C)[C@@H](O[C@H]2C[C@@](C)(OC)C[C@H](C)O2)[C@H](C)[C@@H](O[C@@H]2O[C@H](C)C[C@H](N(C)CC)[C@H]2O)[C@@]2(C)CC(C)=C(O2)[C@H](C)[C@@H](O)[C@H]1C
Query: A or B : whose half-life is greater? Please indicate the selected item by its label.
Result: B
(B: 5.5 h, A: 2.6 h)

* * *

assay: Activity relative to erythromycin A
readout: Relative activity

Answered cases to consult:
entrySmiles	Relative activity
CC[C@H]1OC(=O)[C@H](C)[C@@H](O[C@H]2C[C@@](C)(OC)C[C@H](C)O2)[C@H](C)[C@@H](O[C@@H]2O[C@H](C)C[C@H](NC)[C@H]2O)[C@@]2(C)CC(C)=C(O2)[C@H](C)[C@@H](O)[C@H]1C	> 6.15
CC[C@H]1OC(=O)[C@H](C)[C@@H](O[C@H]2C[C@@](C)(OC)C[C@H](C)O2)[C@H](C)[C@@H](O[C@@H]2O[C@H](C)C[C@H](NC)[C@H]2O)[C@@]2(C)CC(C)=C(O2)[C@H](C)[C@@H](O)[C@]1(C)O	3.89

Reported Relative activity of CC[C@H]1OC(=O)[C@H](C)[C@@H](O[C@H]2C[C@@](C)(OC)C[C@H](C)O2)[C@H](C)[C@@H](O[C@@H]2O[C@H](C)C[C@H](N(C)CC)[C@H]2O)[C@@]2(C)CC(C)=C(O2)[C@H](C)[C@@H](O)[C@H]1C : > 6.15
